Biological target: UniProtKB P07900
Mark Satisfied for IC50 under 60 nM, Not satisfied if at or over.

A selection of reference data follows.
RECORD SMILES: CC(C)COc1ncc2c(n1)CCN(C(=O)c1cc(C(C)C)c(O)cc1O)C2
TESTED ON: UniProtKB P07900
DISCRETE LABEL: Not satisfied

RECORD SMILES: Cc1ncc2c(n1)CCN(C(=O)c1cc(Cl)c(O)cc1O)C2
TESTED ON: UniProtKB P07900
DISCRETE LABEL: Not satisfied

RECORD SMILES: CC(C)c1cc(C(=O)N2CCc3nc(OCCN4CCCCC4)ncc3C2)c(O)cc1O
TESTED ON: UniProtKB P07900
DISCRETE LABEL: Satisfied

RECORD SMILES: CCCCN(CCCC)c1ncc2c(n1)CCN(C(=O)c1cc(C(C)C)c(O)cc1O)C2
TESTED ON: UniProtKB P07900
DISCRETE LABEL: Not satisfied

RECORD SMILES: CCNc1ncc2c(n1)CCN(C(=O)c1cc(C(C)C)c(O)cc1O)C2
TESTED ON: UniProtKB P07900
DISCRETE LABEL: Not satisfied

RECORD SMILES: CC(C)c1cc(C(=O)N2CCc3nc(N4CCOCC4)ncc3C2)c(O)cc1O
TESTED ON: UniProtKB P07900
DISCRETE LABEL: Not satisfied

RECORD SMILES: CCCNc1nc(OCCOC)nc2c1CN(C(=O)c1cc(C(C)C)c(O)cc1O)CC2
TESTED ON: UniProtKB P07900
DISCRETE LABEL: Satisfied

RECORD SMILES: CC(=O)N1CCN(c2ncc3c(n2)CCN(C(=O)c2cc(C(C)C)c(O)cc2O)C3)CC1
TESTED ON: UniProtKB P07900
DISCRETE LABEL: Not satisfied

RECORD SMILES: CCN(CC)c1ncc2c(n1)CCN(C(=O)c1cc(C(C)C)c(O)cc1O)C2
TESTED ON: UniProtKB P07900
DISCRETE LABEL: Not satisfied

// next entry
Threshold test, IC50 < 60 nM: CC(C)c1cc(C(=O)N2Cc3ccc(CN4CCN(C)CC4)cc3C2)c(O)cc1O
Satisfied

* * *

Test: Permeability of the compound at pH 7.4 by PAMPA
Assay type: ADME
Settings: read-out: permeability
RECORDED METRIC: Papp (×10⁻⁶ cm/s)
Give just the number in ×10⁻⁶ cm/s; leave the unit off.

Example cases with answers are listed next.
RECORD SMILES: CNc1nc(OCCOC)nc2c1CN(C(=O)c1cc(C(C)C)c(O)cc1O)CC2
UNIT OF MEASURE: ×10⁻⁶ cm/s
READOUT NUMBER: 57.5
//
RECORD SMILES: COCCOc1nc2c(c(OC(C)C)n1)CN(C(=O)c1cc(C(C)C)c(O)cc1O)CC2
UNIT OF MEASURE: ×10⁻⁶ cm/s
READOUT NUMBER: 79.4

Entry COCCOc1nc2c(c(OC)n1)CN(C(=O)c1cc(C(C)C)c(O)cc1O)CC2 , Papp reported as 75.8

Entry CC(C)c1cc(C(=O)N2CCc3nc(OCCN4CCOCC4)ncc3C2)c(O)cc1O , Papp reported as 30.2

Entry CC(C)c1cc(C(=O)N2Cc3ccc(CN4CCN(C)CC4)cc3C2)c(O)cc1O , Papp reported as 74.3

Entry CCN(CC)c1nc(OCCOC)nc2c1CN(C(=O)c1cc(C(C)C)c(O)cc1O)CC2 , Papp reported as 107

Entry CCCNc1nc(OCCOC)nc2c1CN(C(=O)c1cc(C(C)C)c(O)cc1O)CC2 , Papp reported as 78.7

Entry CCOc1ncc2c(n1)CCN(C(=O)c1cc(C(C)C)c(O)cc1O)C2 , Papp reported as 72.4

Entry COCCOc1nc2c(c(NC(C)C)n1)CN(C(=O)c1cc(C(C)C)c(O)cc1O)CC2 , Papp reported as 62.4

Entry Cc1ncc2c(n1)CCN(C(=O)c1cc(C(C)C)c(O)cc1O)C2 , Papp reported as 33.3

* * *

Experiment: Selectivity ratio of IC50 for inhibition of FITC-geldanamycin binding to N-terminal GRP94 (unknown origin) to IC50 for inhibition of FITC-geldanamycin binding to N-terminal HSP90alpha (unknown origin)
Measured Ratio IC50 accompanies every entry in the list below.
Write no unit; give the number alone.

RECORD SMILES: CCOc1nc(OCCOC)nc2c1CN(C(=O)c1cc(C(C)C)c(O)cc1O)CC2
Ratio IC50: 23.4

Entry Cc1ncc2c(n1)CCN(C(=O)c1cc(C(C)C)c(O)cc1O)C2 , Ratio IC50 reported as 9.4

Entry CCNc1nc(OCCOC)nc2c1CN(C(=O)c1cc(C(C)C)c(O)cc1O)CC2 , Ratio IC50 reported as 26

Entry CCN(CC)c1nc(OCCOC)nc2c1CN(C(=O)c1cc(C(C)C)c(O)cc1O)CC2 , Ratio IC50 reported as 10.8

Entry COCCOc1nc2c(c(OC(C)C)n1)CN(C(=O)c1cc(C(C)C)c(O)cc1O)CC2 , Ratio IC50 reported as 22.7

Entry Cc1ncc2c(n1)CN(C(=O)c1cc(C(C)C)c(O)cc1O)C2 , Ratio IC50 reported as 1.3

Entry CCN(CC)CCOc1ncc2c(n1)CCN(C(=O)c1cc(C(C)C)c(O)cc1O)C2 , Ratio IC50 reported as 6.8

Entry CNc1nc(OCCOC)nc2c1CN(C(=O)c1cc(C(C)C)c(O)cc1O)CC2 , Ratio IC50 reported as 11.5

Entry COCCOc1nc2c(c(NC(C)C)n1)CN(C(=O)c1cc(C(C)C)c(O)cc1O)CC2 , Ratio IC50 reported as 26.2

Entry CC(C)c1cc(C(=O)N2CCc3nc(OCCN(C)C)ncc3C2)c(O)cc1O , Ratio IC50 reported as 9.7

* * *

Test: Distribution coefficient, logD of compound at pH 7.4
Type: physicochemical
Conditions: octanol/water
RECORDED METRIC: logD
Write no unit; give the number alone.

RECORD SMILES: COCCOc1nc2c(c(NC(C)C)n1)CN(C(=O)c1cc(C(C)C)c(O)cc1O)CC2
logD: 2.98
--
RECORD SMILES: CC(C)c1cc(C(=O)N2CCc3nc(OCCN4CCCCC4)ncc3C2)c(O)cc1O
logD: 1.21
--
RECORD SMILES: CCN(CC)c1nc(OCCOC)nc2c1CN(C(=O)c1cc(C(C)C)c(O)cc1O)CC2
logD: 3.08
--
RECORD SMILES: CC(C)c1cc(C(=O)N2CCc3nc(OCCCN(C)C)ncc3C2)c(O)cc1O
logD: 1.09

Entry COCCOc1ncc2c(n1)CCN(C(=O)c1cc(C(C)C)c(O)cc1O)C2 , logD reported as 2.14

Entry CC(C)c1cc(C(=O)N2CCc3nc(OCCN4CCCC4)ncc3C2)c(O)cc1O , logD reported as 1.12

Entry CC(C)c1cc(C(=O)N2CCc3nc(OCCN(C)C)ncc3C2)c(O)cc1O , logD reported as 1.04

Entry CNc1nc(OCCOC)nc2c1CN(C(=O)c1cc(C(C)C)c(O)cc1O)CC2 , logD reported as 2.21

Entry CCCNc1nc(OCCOC)nc2c1CN(C(=O)c1cc(C(C)C)c(O)cc1O)CC2 , logD reported as 2.92

* * *

Measured log10 IC50 accompanies every entry in the list below.
System: HCT-116
Assay: cells
Settings: Homo sapiens, HCT-116, 72 h
Description: Antiproliferative activity against human HCT-116 cells assessed as reduction in cell viability incubated for 72 hrs by MTT assay
Annotation: log10 of IC50, µM basis.

RECORD SMILES: CC(C)c1cc(C(=O)N2CCc3nc(N4CCN(C)CC4)ncc3C2)c(O)cc1O
TESTED ON: HCT-116
log10 IC50: 0.23

RECORD SMILES: CCCOc1ncc2c(n1)CCN(C(=O)c1cc(C(C)C)c(O)cc1O)C2
TESTED ON: HCT-116
log10 IC50: 0.03

RECORD SMILES: CCCN(CCC)c1ncc2c(n1)CCN(C(=O)c1cc(C(C)C)c(O)cc1O)C2
TESTED ON: HCT-116
log10 IC50: 0.76

RECORD SMILES: CCCOc1nc(OCCOC)nc2c1CN(C(=O)c1cc(C(C)C)c(O)cc1O)CC2
TESTED ON: HCT-116
log10 IC50: -0.92

Kindly review the next compound as well.
Entry CC(C)c1cc(C(=O)N2CCc3nc(N4CCOCC4)ncc3C2)c(O)cc1O , log10 IC50 reported as 0.17

* * *

Assay: Tmax in rat at 50 mg/kg, po measured upto 24 hrs by LC-MS/MS analysis
Assay type: ADME, organism-based
Conditions: in vivo
RECORDED METRIC: Tmax (min)
Give just the number in min; leave the unit off.

RECORD SMILES: CCNc1nc(OCCOC)nc2c1CN(C(=O)c1cc(C(C)C)c(O)cc1O)CC2
READOUT NUMBER: 30

Kindly review the next molecule as well.
Entry COCCOc1ncc2c(n1)CCN(C(=O)c1cc(C(C)C)c(O)cc1O)C2 , Tmax reported as 30

Each recorded value in this set is attributed to ChEMBL document CHEMBL4706476.
